- Tested on: NCI-H1993
- TEST: relative viability (nuclei count vs DMSO), 5 days (fraction); higher = more cells survive
- MEASUREMENT CONDITIONS: first compound 6.325 µM
Field 'label' (enum: Condition met / Condition not met). Set to Condition met when relative viability is strictly under 0.7; else Condition not met.

- COMPOUND: "COCC1(CO)C(=O)C2CCN1CC2 (stereo unspecified) [PRIMA-1MET] + O=C(CCCCCCC(=O)Nc1ccccc1)NO [Vorinostat] (partner 1 µM)"
  QUALITATIVE LABEL: "Condition met"
- COMPOUND: "COCC1(CO)C(=O)C2CCN1CC2 (stereo unspecified) [PRIMA-1MET] + CC(=O)Nc1cccc(-n2c(=O)n(C3CC3)c(=O)c3c(Nc4ccc(I)cc4F)n(C)c(=O)c(C)c32)c1 [Trametinib] (partner 0.02 µM)"
  QUALITATIVE LABEL: "Condition met"
- COMPOUND: "COCC1(CO)C(=O)C2CCN1CC2 (stereo unspecified) [PRIMA-1MET] + Nc1ncn([C@H]2C[C@H](O)[C@@H](CO)O2)c(=O)n1 [Decitabine] (partner 2 µM)"
  QUALITATIVE LABEL: "Condition not met"
- COMPOUND: "COCC1(CO)C(=O)C2CCN1CC2 (stereo unspecified) [PRIMA-1MET] + CS(=O)(=O)N1CCN(Cc2cc3nc(-c4cccc5[nH]ncc45)nc(N4CCOCC4)c3s2)CC1 [Pictilisib] (partner 1 µM)"
  QUALITATIVE LABEL: "Condition not met"
- COMPOUND: "COCC1(CO)C(=O)C2CCN1CC2 (stereo unspecified) [PRIMA-1MET] + COc1cccc2cc(-c3nc([C@H]4CC[C@H](C(=O)O)CC4)n4ncnc(N)c34)[nH]c12 [OSI-027] (partner 0.5 µM)"
  QUALITATIVE LABEL: "Condition met"

Query compound follows.
[Q] relative viability strictly < 0.7 for this compound? COCC1(CO)C(=O)C2CCN1CC2 (stereo unspecified) [PRIMA-1MET] + CCNC(=O)c1noc(-c2cc(C(C)C)c(O)cc2O)c1-c1ccc(CN2CCOCC2)cc1 [Luminespib] (partner 0.01 µM)
[A] Condition not met
